Provide the recorded normalized growth for the entries that follow.
experiment: chemical genetic growth profiling, strain panel (AID 1159580);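 further: tested at 20 µM; growth read once vehicle control cultures reached saturation at 30 °C; 1 = growth at the plate median or of vehicle wells; lower values mean less growth of the strain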; details: S. cerevisiae deletion strains, growth OD, locus YHR094C, strain hxt1, active compounds read low
Hit rate of the full screen: of about 5,500 compounds, about 2,000 (36%) were called active. About 18% were inconclusive and are not listed. This is one part of the list.
The response must contain the number and no unit.

stdin: Item C=C(C)C1Cc2c(ccc(C(=O)O)c2O)O1 (configuration not stated) has what recorded normalized growth?
stdout: 0.944

stdin: Fill in: normalized growth of C=C(C)C1Cc2c(ccc3c(=O)c4c(oc23)COc2cc(OC)c(OC)cc2-4)O1 (configuration not stated) is ___
stdout: 0.979

stdin: Given the molecule CN(C)CCC[C@@]1(c2ccc(F)cc2)OCc2cc(C#N)ccc21 , what is its reported normalized growth?
stdout: 1.02

stdin: Record request: normalized growth value, item OC[C@H]1O[C@@H](Oc2ccc(O)cc2)[C@H](O)[C@@H](O)[C@@H]1O
stdout: 1.02

stdin: What value of normalized growth has been reported for the following molecule? O=C(O)c1cccnc1C(=O)O
stdout: 0.983

stdin: Fill in the blank: the reported normalized growth of O=C(/C=C/c1ccc(O)cc1)c1ccc(O)cc1O is ____.
stdout: 0.965

stdin: For Oc1cccc2cccnc12 , what is its reported normalized growth?
stdout: 0.0596

---

experiment: chemical genetic growth profiling, strain panel (AID 1159580); conditions: S. cerevisiae deletion strains, growth OD, locus YDL108W, strain KIN28
The whole screen tested about 5,500 compounds, of which about 2,000 (36%) were called active. Not shown: some 18% with an inconclusive outcome. Rule as the data show it: active = normalized growth mostly below about 0.91 (no sharp cut-off); inconclusive = no clear call, values can overlap the other calls; inactive = mostly above about 0.92. Some of the results follow.
Reply using exactly one outcome from 1 for active, -1 for inactive

stdin: What classification did O=C(OCCNc1ccc([N+](=O)[O-])cn1)c1ccc([N+](=O)[O-])o1 end up with in this test?
stdout: -1

stdin: Which outcome did this test record for the molecule Cc1csc2ncnc(N3CCN(C(=S)Nc4ccc(C(F)(F)F)cc4)CC3)c12 ?
stdout: -1

stdin: How did this test come out for O=[N+]([O-])c1ccc(Sc2ccccc2)c([N+](=O)[O-])c1 ?
stdout: 1

stdin: Entry Cc1csc2c(N3CCN(C(=S)Nc4ccc(C(F)(F)F)cc4)CC3)ncnc12 : call = ?
stdout: -1

stdin: # outcome recorded in this test, key = CC(=O)c1ccc(Sc2ccccc2)c([N+](=O)[O-])c1
stdout: 1

---

test: chemical genetic growth profiling, strain panel (AID 1159580); details: S. cerevisiae deletion strains, growth OD, locus YDR477W, strain SNF1
Hit rate of the full screen: of about 5,500 compounds, about 2,000 (36%) were called active. Inconclusive results (about 18%) are left out. No stated cut-off is given here; in the data, active means normalized growth mostly below about 0.91 (no sharp cut-off); inconclusive means no clear call, values can overlap the other calls; inactive means mostly above about 0.92. The list shows a part of the results.
Select the matching outcome among active, inactive

stdin: Call for entry O=[N+]([O-])c1cc(C(F)(F)F)ccc1Sc1n[nH]c(-c2cc(Cl)cc(Cl)c2)n1 :
stdout: active

stdin: Record lookup: outcome of this test for FC(F)(F)c1c2c(nc3cc(-c4ccco4)nn13)CCC2 ?
stdout: inactive

stdin: What was the test verdict on O=C(Nc1cc(Cl)cc(Cl)c1)c1cc(Br)ccc1O ?
stdout: inactive

stdin: Dear all, I need the recorded test outcome for Cc1csc2ncnc(N3CCN(C(=O)Nc4ccc(SC(F)(F)F)cc4)CC3)c12 , thank you.
stdout: inactive

stdin: Outcome? S=C(NCc1cccs1)Nc1cc(Cl)cc(Cl)c1
stdout: inactive

stdin: What was the test verdict on O=C(Nc1ccc(F)cc1)c1cc(Br)ccc1O ?
stdout: inactive

stdin: Could you please tell me the result logged for COc1cc(C2CC(=S)Nc3ccccc3S2)cc(OC)c1OC (centres undefined) in this assay?
stdout: inactive

stdin: Could you kindly confirm the outcome this assay logged for Cc1cc2nc3c(Cl)c(O)c4ccccc4c3nc2cc1C ?
stdout: active

stdin: Tell me the recorded outcome of this test for S=C(NCCc1csc2ccccc12)Nc1ccc(Cl)cc1 .
stdout: inactive

---

test: chemical genetic growth profiling, strain panel (AID 1159580); details: S. cerevisiae deletion strains, growth OD, locus YLR113W, strain HOG1, active compounds read low
The campaign covered roughly 5,500 compounds. About 2,000 (36%) were called active. Not shown: some 18% with an inconclusive outcome. The list shows a part of the results.
Task for the reader: assign each of the following compounds its reported normalized growth.
Just the number, please.

stdin: Param item = O=C(O)c1cccnc1C(=O)O ; retrieve measured normalized growth.
stdout: 0.996

stdin: What does the record list as normalized growth for CNC(C)[C@@H]1CC[C@@H](N)[C@@H](OC2[C@@H](N)C[C@@H](N)[C@H](OC3OC[C@](C)(O)[C@H](NC)[C@H]3O)[C@H]2O)O1 (stereo partly specified) ?
stdout: 0.987

stdin: Reported normalized growth for Cn1c(=O)c2c(ncn2C)n(C)c1=O : what is it?
stdout: 1.04

stdin: Fill in the blank: the reported normalized growth of O=C(/C=C/c1ccccc1)c1ccc(O)cc1O is ____.
stdout: 0.216

stdin: Param item = FC(F)(F)c1ccncc1-c1nc(-c2ccc(Cl)cc2)cs1 ; retrieve measured normalized growth.
stdout: 0.686

stdin: Endpoint output: normalized growth of CC(=O)CCCCn1c(=O)c2c(ncn2C)n(C)c1=O . Value?
stdout: 1

stdin: If you can, please state the reported normalized growth value of Cc1cc(C)c2cc(C(=O)NCCNc3ccc(C(F)(F)F)cn3)[nH]c2c1 .
stdout: 0.137

stdin: Form field: reported normalized growth of Cn1c(=O)c2c(ncn2CCO)n(C)c1=O
stdout: 0.988

stdin: What value of normalized growth has been reported for the following compound? O=c1c(O)c(-c2ccccc2)oc2ccc3occc3c12
stdout: 0.893

stdin: normalized growth for Cn1cnc2c1c(=O)[nH]c(=O)n2C ?
stdout: 0.973

stdin: Query: normalized growth; subject: C[C@H]1C(=O)CCC2[C@]3(C)CC[C@@]4(C)C5CC(C)(C)CC[C@]5(C)CC[C@]4(C)C3CC[C@@]21C (stereo partly specified)
stdout: 0.965

---

Hi there, I'd appreciate the recorded normalized growth for every entry that follows.
assay: chemical genetic growth profiling, strain panel (AID 1159580);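 further: tested at 20 µM; growth read once vehicle control cultures reached saturation at 30 °C; 1 = growth at the plate median or of vehicle wells; lower values mean less growth of the strain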; details: S. cerevisiae deletion strains, growth OD, locus YJL115W, strain asf1, active compounds read low
Screen size: about 5,500 compounds; about 2,000 (36%) were called active. Not shown: some 18% with an inconclusive outcome. This is one part of the list.
# respond with the number and nothing more

stdin: Which value of normalized growth has been reported for CC[C@H]1OC(=O)[C@H](C)[C@@H](O[C@H]2C[C@@](C)(OC)[C@@H](O)[C@H](C)O2)[C@H](C)[C@@H](O[C@@H]2O[C@H](C)C[C@H](N(C)C)[C@H]2O)[C@](C)(O)C[C@@H](C)/C(=N/OCOCCOC)[C@H](C)[C@@H](O)[C@]1(C)O in the records?
stdout: 1.04

stdin: // lookup normalized growth for CC(C)Cn1c(=O)n(C)c(=O)c2[nH]cnc21
stdout: 1.01

stdin: Reported normalized growth, molecule Oc1cc2c(cc1O)C(c1ccccc1)CNCC2 (centres undefined) : ____
stdout: 0.991

stdin: # normalized growth lookup, item O=C(CCc1ccc(O)cc1)c1c(O)cc(O)cc1O
stdout: 1.02

---

test: chemical genetic growth profiling, strain panel (AID 1159580);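 further: tested at 20 µM; growth read once vehicle control cultures reached saturation at 30 °C; 1 = growth at the plate median or of vehicle wells; lower values mean less growth of the strain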; conditions: S. cerevisiae deletion strains, growth OD, locus YOR070C, strain gyp1, active compounds read low
Among all 5,500 compounds or so, about 2,000 (36%) were called active. Not shown: some 18% with an inconclusive outcome. This is one part of the list.
Please provide measured normalized growth for the entries that follow.
Give the value as a plain number.

stdin: Field request: normalized growth | item: CCCC(=O)Nc1ccc(OCC(O)CNC(C)C)c(C(C)=O)c1 (stereo unspecified)
stdout: 1.02

stdin: normalized growth lookup needed for CCCc1ncc(C[n+]2ccccc2C)c(N)n1 , thanks.
stdout: 0.992

stdin: Which measured normalized growth value corresponds to O=C1c2cccc(O)c2C(=O)c2c(O)cccc21 ?
stdout: 0.874

stdin: I would be grateful if you could share the reported normalized growth for Oc1cccc2cccnc12 .
stdout: 0.0577

stdin: # input compound: O=C(O)[C@H]1/C(=C/CO)O[C@@H]2CC(=O)N21 ; wanted: its normalized growth
stdout: 0.994

stdin: Query (compound): CO/N=C(/C(=O)NC1C(=O)N2C(C(=O)OCOC(=O)C(C)(C)C)=C(/C=C\c3scnc3C)CSC12)c1csc(N)n1 (stereo unspecified) ; field requested: normalized growth
stdout: 1

---

Can you tell me normalized growth for the items I'm about to list?
assay: chemical genetic growth profiling, strain panel (AID 1159580);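 further: tested at 20 µM; growth read once vehicle control cultures reached saturation at 30 °C; 1 = growth at the plate median or of vehicle wells; lower values mean less growth of the strain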; conditions: S. cerevisiae deletion strains, growth OD, locus YOR144C, strain elg1, active compounds read low
About 2,000 (36%) of roughly 5,500 compounds were called active. Not shown: some 18% with an inconclusive outcome. The list shows a part of the results.
The answer should be a number; do not append a unit.

stdin: Fill in the blank: the reported normalized growth of CC(=O)O[C@@H]1C2CC[C@@H]3C1(C[C@@H](O)[C@@]1(O)[C@@H](C[C@H](O)C1(C)C)[C@]3(C)O)C[C@@]2(C)O (some centres not stated) is ____.
stdout: 0.994

stdin: # input molecule: CC(=O)OC1CCC2(O)CC1(C)CCC1C2CC1(C)C (configuration not stated) ; wanted: its normalized growth
stdout: 0.988

stdin: // normalized growth lookup, key: Cn1c(=O)c2c(ncn2C)n(C)c1=O
stdout: 1

stdin: // query normalized growth value for entry CN(C)CCC[C@@]1(c2ccc(F)cc2)OCc2cc(C#N)ccc21
stdout: 1.02

stdin: Please look up its normalized growth: COc1cc(O)ccc1C(C)=O
stdout: 0.986

stdin: Sample Cn1cnc2c1c(=O)[nH]c(=O)n2C — what was its normalized growth?
stdout: 1.01

stdin: # input molecule: CC(C)N=C(N)N=C(N)Nc1ccc(Cl)cc1 ; wanted: its normalized growth
stdout: 1.02

stdin: Fill blank: measured normalized growth of the molecule O=C(CCc1ccc(O)cc1)c1c(O)cc(O)cc1O is ____.
stdout: 1

stdin: Which normalized growth is listed for COc1ccc([C@@H](C)C(=O)c2ccc(O)cc2O)cc1 ?
stdout: 0.961

stdin: What does the record list as normalized growth for NC(=NCCCCCCN=C(N)N=C(N)Nc1ccc(Cl)cc1)N=C(N)Nc1ccc(Cl)cc1 ?
stdout: 0.0593

stdin: Field request: normalized growth | item: Cn1c(=O)[nH]c2nc[nH]c2c1=O
stdout: 0.996

stdin: What normalized growth value was documented for this molecule, COc1ccc(CC(=O)c2ccc(O)cc2O)cc1 ?
stdout: 0.966
